Source: ChEMBL document CHEMBL3745716

- Test system: SK-N-SH
- experiment.description: Neurotoxicity against human SK-N-SH cells assessed as cell viability at 120 uM after 24 hrs by MTT assay
- Type: toxicity, cell-based
measured.attribute: Activity

INSERT INTO measurements (molecule_smiles, target_system, endpoint_value) VALUES
  ('Cc1cc(=O)oc2c1ccc1oc(=N)c(C(=O)NCc3ccc(C(C)(C)C)cc3)cc12', 'SK-N-SH', 'Toxic'),
  ('Cc1cc(=O)oc2c1ccc1oc(=N)c(C(=O)NCc3cccc(Br)c3)cc12', 'SK-N-SH', 'Toxic'),
  ('Cc1cc(=O)oc2c1ccc1oc(=N)c(C(=O)NCc3ccccc3Cl)cc12', 'SK-N-SH', 'Non-toxic'),
  ('Cc1cc(=O)oc2c1ccc1oc(=N)c(C(=O)NCc3ccccc3Br)cc12', 'SK-N-SH', 'Non-toxic');

// moving on: another record for Activity
Exercise: # return Activity of Cc1cc(=O)oc2c1ccc1oc(=N)c(C(=O)NCc3cccc(Cl)c3)cc12 (system: SK-N-SH)
Key: Non-toxic

---

- Test system: SK-N-SH
- experiment.description: Neurotoxicity against human SK-N-SH cells assessed as cell viability at 160 uM after 24 hrs by MTT assay
- Assay type: toxicity, cell-based
measured.attribute: Activity

Some compounds with recorded Activity:
INSERT INTO measurements (molecule_smiles, target_system, measured_attribute, endpoint_value) VALUES
  ('Cc1cc(=O)oc2c1ccc1oc(=N)c(C(=O)NCc3ccccc3Br)cc12', 'SK-N-SH', 'Activity', 'Non-toxic'),
  ('Cc1cc(=O)oc2c1ccc1oc(=N)c(C(=O)NCc3cccc(Cl)c3)cc12', 'SK-N-SH', 'Activity', 'Non-toxic'),
  ('Cc1cc(=O)oc2c1ccc1oc(=N)c(C(=O)NCc3cccc(Br)c3)cc12', 'SK-N-SH', 'Activity', 'Toxic'),
  ('Cc1cc(=O)oc2c1ccc1oc(=N)c(C(=O)NCc3ccccc3Cl)cc12', 'SK-N-SH', 'Activity', 'Non-toxic');

Field: next compound
Exercise: Indicate the recorded Activity value for this compound: Cc1cc(=O)oc2c1ccc1oc(=N)c(C(=O)NCc3ccc(C(C)(C)C)cc3)cc12
Key: Toxic

---

measured.attribute: pIC50
FYI, pIC50 means -log10 of a concentration in mol per litre.

Exercise: Using known records, supply pIC50 for Cc1cc(=O)oc2c1ccc1oc(=N)c(C(=O)NCc3cccc(Cl)c3)cc12
Key: 4.99

Exercise: Read the entry Cc1cc(=O)oc2c1ccc1oc(=N)c(C(=O)N3CCOCC3)cc12 and write its reported pIC50.
Key: 4.95

Exercise: State its pIC50 for this molecule: Cc1cc(=O)oc2c1ccc1oc(=N)c(C(=O)NCc3ccc(C(C)(C)C)cc3)cc12
Key: 4.87

---

- Test system: SK-N-SH
- experiment.description: Neurotoxicity against human SK-N-SH cells assessed as cell viability at 200 uM after 24 hrs by MTT assay
- Format: toxicity, cell-based
measured.attribute: Activity

INSERT INTO measurements (molecule_smiles, measured_attribute, endpoint_value) VALUES
  ('Cc1cc(=O)oc2c1ccc1oc(=N)c(C(=O)NCc3ccccc3Br)cc12', 'Activity', 'Non-toxic'),
  ('Cc1cc(=O)oc2c1ccc1oc(=N)c(C(=O)NCc3ccccc3Cl)cc12', 'Activity', 'Non-toxic'),
  ('Cc1cc(=O)oc2c1ccc1oc(=N)c(C(=O)NCc3ccc(C(C)(C)C)cc3)cc12', 'Activity', 'Toxic'),
  ('Cc1cc(=O)oc2c1ccc1oc(=N)c(C(=O)NCc3cccc(Cl)c3)cc12', 'Activity', 'Non-toxic');

# input for lookup
Exercise: Tell me measured Activity for Cc1cc(=O)oc2c1ccc1oc(=N)c(C(=O)NCc3cccc(Br)c3)cc12 please.
Key: Toxic

---

- Test system: SK-N-SH
- experiment.description: Neurotoxicity against human SK-N-SH cells assessed as cell viability at 80 uM after 24 hrs by MTT assay
- Type: toxicity, cell-based
measured.attribute: Activity

INSERT INTO assay_data (molecule_smiles, endpoint_value) VALUES
  ('Cc1cc(=O)oc2c1ccc1oc(=N)c(C(=O)NCc3cccc(Br)c3)cc12', 'Toxic'),
  ('Cc1cc(=O)oc2c1ccc1oc(=N)c(C(=O)NCc3cccc(Cl)c3)cc12', 'Non-toxic'),
  ('Cc1cc(=O)oc2c1ccc1oc(=N)c(C(=O)NCc3ccccc3Br)cc12', 'Non-toxic'),
  ('Cc1cc(=O)oc2c1ccc1oc(=N)c(C(=O)NCc3ccc(C(C)(C)C)cc3)cc12', 'Toxic');

Exercise: Annotate the compound Cc1cc(=O)oc2c1ccc1oc(=N)c(C(=O)NCc3ccccc3Cl)cc12 with its measured Activity.
Key: Non-toxic

---

- target.system: UniProt P81908
- Sequence (P81908 whole entry): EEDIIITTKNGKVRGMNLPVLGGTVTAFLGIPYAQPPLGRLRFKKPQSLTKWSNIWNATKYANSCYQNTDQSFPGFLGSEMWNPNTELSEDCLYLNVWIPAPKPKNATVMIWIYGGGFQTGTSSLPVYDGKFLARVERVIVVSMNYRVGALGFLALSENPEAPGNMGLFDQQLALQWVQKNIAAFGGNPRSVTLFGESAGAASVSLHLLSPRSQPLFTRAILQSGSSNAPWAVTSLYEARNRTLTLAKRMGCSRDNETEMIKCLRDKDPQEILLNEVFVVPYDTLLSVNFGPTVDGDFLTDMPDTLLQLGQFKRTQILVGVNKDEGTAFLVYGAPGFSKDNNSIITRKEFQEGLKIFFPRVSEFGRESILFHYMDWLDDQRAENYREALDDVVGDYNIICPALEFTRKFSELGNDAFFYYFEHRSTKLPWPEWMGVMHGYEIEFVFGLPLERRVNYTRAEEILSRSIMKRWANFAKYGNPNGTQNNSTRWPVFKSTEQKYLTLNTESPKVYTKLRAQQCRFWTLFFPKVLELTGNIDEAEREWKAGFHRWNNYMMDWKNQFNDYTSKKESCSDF
// classify: if (IC50 < 40 µM) T else F

Exercise: Take the molecule Cc1cc(=O)oc2c1ccc1oc(=N)c(C(=O)NCc3ccccc3)cc12 and say whether its IC50 is less than 40 µM.
Key: F

Exercise: Is IC50 of CNC(=O)c1cc2c(ccc3c(C)cc(=O)oc32)oc1=N strictly below 40 µM?
Key: F

Exercise: Lab note: confirm whether the reported IC50 for this molecule is below 40 µM, equality not counting. molecule: Cc1cc(=O)oc2c1ccc1oc(=N)c(C(=O)NC3CCCCC3)cc12
Key: F

Exercise: Determine whether this molecule shows IC50 lower than 40 µM (ties excluded): COc1ccc(CNC(=O)c2cc3c(ccc4c(C)cc(=O)oc43)oc2=N)c(OC)c1
Key: F

Exercise: Here's an entry: Cc1cc(=O)oc2c1ccc1oc(=N)c(C(=O)NCc3ccccc3Cl)cc12 . Is its IC50 below 40 µM?
Key: F

Exercise: Given Cc1cc(=O)oc2c1ccc1oc(=N)c(C(=O)NCc3ccc(C(C)(C)C)cc3)cc12 , is recorded IC50 strictly lower than 40 µM?
Key: F

Exercise: I wonder whether Cc1cc(=O)oc2c1ccc1oc(=N)c(C(=O)NCc3ccccc3Br)cc12 has IC50 below 40 µM. Can you tell?
Key: F

Exercise: Determine whether this molecule shows IC50 lower than 40 µM (ties excluded): CCNC(=O)c1cc2c(ccc3c(C)cc(=O)oc32)oc1=N
Key: T

Exercise: Answer whether the molecule Cc1cc(=O)oc2c1ccc1oc(=N)c(C(=O)N3CCCC3)cc12 has IC50 strictly less than 40 µM
Key: F

Exercise: Quick check: does Cc1cc(=O)oc2c1ccc1oc(=N)c(C(=O)NC(C)c3ccccc3)cc12 (stereo unspecified) have IC50 under 40 µM?
Key: T

Exercise: Is it true that IC50 reported for Cc1cc(=O)oc2c1ccc1oc(=N)c(C(=O)NCc3cccc(Cl)c3)cc12 is less than 40 µM?
Key: F

Exercise: Please let me know if COc1ccccc1OCCNC(=O)c1cc2c(ccc3c(C)cc(=O)oc32)oc1=N shows IC50 below 40 µM.
Key: T

Exercise: Problem: For the molecule Cc1cc(=O)oc2c1ccc1oc(=N)c(C(=O)Nc3ccccc3[N+](=O)[O-])cc12 , is IC50 under 40 µM?
Key: F

Exercise: Could you please tell me whether IC50 recorded for Cc1cc(=O)oc2c1ccc1oc(=N)c(C(=O)NCc3cccc(Br)c3)cc12 is less than 40 µM?
Key: F

Exercise: Hello, I'm reviewing records and need to know if IC50 of CCCCCCCCCCCCNC(=O)c1cc2c(ccc3c(C)cc(=O)oc32)oc1=N is below 40 µM. Could you check?
Key: F

---

Give measured pIC50 for each item. Keep answers brief.
Note on pIC50: it is the negative log10 of concentration, concentration in mol/L.

Exercise: Find the measured pIC50 of Cc1cc(=O)oc2c1ccc1oc(=N)c(C(=O)NC(c3ccccc3)c3ccccc3)cc12 with UniProt O42275 as test system.
Sequence (O42275 whole entry): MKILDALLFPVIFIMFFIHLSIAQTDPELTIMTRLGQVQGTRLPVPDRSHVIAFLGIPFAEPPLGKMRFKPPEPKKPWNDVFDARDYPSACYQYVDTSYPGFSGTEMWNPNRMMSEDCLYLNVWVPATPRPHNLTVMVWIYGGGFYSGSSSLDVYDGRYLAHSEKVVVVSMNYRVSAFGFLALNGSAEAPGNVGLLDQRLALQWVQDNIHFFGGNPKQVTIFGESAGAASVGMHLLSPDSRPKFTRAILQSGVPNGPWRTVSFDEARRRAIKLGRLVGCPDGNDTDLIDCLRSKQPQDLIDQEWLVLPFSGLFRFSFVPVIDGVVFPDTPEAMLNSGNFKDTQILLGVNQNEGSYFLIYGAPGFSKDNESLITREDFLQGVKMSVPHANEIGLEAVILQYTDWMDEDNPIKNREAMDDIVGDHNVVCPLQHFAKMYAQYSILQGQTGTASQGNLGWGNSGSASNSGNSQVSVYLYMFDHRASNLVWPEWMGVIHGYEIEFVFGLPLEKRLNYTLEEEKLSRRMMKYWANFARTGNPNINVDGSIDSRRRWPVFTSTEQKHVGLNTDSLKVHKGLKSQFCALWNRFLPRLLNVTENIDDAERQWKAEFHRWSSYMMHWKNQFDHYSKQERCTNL
Key: 7.05

Exercise: Tell me its pIC50 on UniProt O42275: COc1ccc(C(C)NC(=O)c2cc3c(ccc4c(C)cc(=O)oc43)oc2=N)cc1 (stereo not given)
Key: 5.72

Exercise: Retrieve pIC50 on UniProt O42275; query CCNC(=O)c1cc2c(ccc3c(C)cc(=O)oc32)oc1=N
Key: 6.53

Exercise: Give pIC50 for this entry on UniProt O42275: Cc1cc(=O)oc2c1ccc1oc(=N)c(C(=O)Nc3ccccc3[N+](=O)[O-])cc12
Key: 6.65

Exercise: Give pIC50 only, for Cc1cc(=O)oc2c1ccc1oc(=N)c(C(=O)N3CCOCC3)cc12 , using UniProt O42275 data.
Key: 6.94

Exercise: Please report pIC50 with UniProt O42275 for item Cc1cc(=O)oc2c1ccc1oc(=N)c(C(=O)NCc3ccccc3Cl)cc12 .
Key: 7.92

Exercise: Give pIC50 only, for COc1ccccc1OCCNC(=O)c1cc2c(ccc3c(C)cc(=O)oc32)oc1=N , using UniProt O42275 data.
Key: 5.59

Exercise: Determine reported pIC50 for Cc1cc(=O)oc2c1ccc1oc(=N)c(C(=O)NCc3ccccc3Br)cc12 ; test system: UniProt O42275.
Key: 7.80

Exercise: Jot down pIC50 (UniProt O42275) of Cc1cc(=O)oc2c1ccc1oc(=N)c(C(=O)NCc3ccc(C(C)(C)C)cc3)cc12 .
Key: 8.00

Exercise: Give pIC50 for CCCCCCCCCCCCNC(=O)c1cc2c(ccc3c(C)cc(=O)oc32)oc1=N tested on UniProt O42275.
Key: 7.66
